Assay: Pharmacokinetic studies: plasma concentrations of pomalidomide in KS patients (HPLC with fluorescence detection)
Type: in vivo, human
Settings: human, po; plasma; across all analyzed doses; cycle 1 day 1 and day 15; 5 mg orally
PARAMETER_MEASURED: Tmax (h)
Please respond with the number in h and leave the unit unwritten.

Ask | Entry Nc1cccc2c1C(=O)N(C1CCC(=O)NC1=O)C2=O (stereo not shown) [pomalidomide] : reported Tmax = ?
Reply | 2.71

---

Assay: Pharmacokinetic studies: plasma concentrations of pomalidomide in KS patients (HPLC with fluorescence detection)
Type: in vivo, human
Conditions: human, po; plasma; across all analyzed doses; cycle 1 day 1 and day 15; 5 mg orally
PARAMETER_MEASURED: half-life (h)
Please respond with the number in h and leave the unit unwritten.

Ask | Entry Nc1cccc2c1C(=O)N(C1CCC(=O)NC1=O)C2=O (stereo not shown) [pomalidomide] : reported half-life = ?
Reply | 7.1
